# assay_info: NCI Yeast Anticancer Drug Screen. Data for the sgs1 mgt1 strain (AID 161);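 also: 0% = growth of cultures given vehicle only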
# experimental_parameters: S. cerevisiae sgs1 mgt1 strain, at 50.0 µM
Compounds without any hit were thinned out: in the full panel of roughly 79,000, 15% have a hit. Activity calls are given as the source filed them. Rule as the data show it: active = growth inhibition above about 70%; inactive = the rest.
Outcomes: active, inactive

compound | cat
CN=C(N)N/N=C(\C)c1ccc2oc3ccc(/C(C)=N/NC(N)=NC)cc3c2c1 | active
CC(=O)OCC1OC(O[C@H]2C=C[C@@H](C(=O)OCc3ccccc3)n3c(=O)n(-c4ccccc4)c(=O)n32)C(OC(C)=O)C(OC(C)=O)C1OC(C)=O (stereo not given in full) | active
COC(=O)/C=C1/OC(c2ccc(Br)cc2)=C(Br)C1=O | active
Cc1c(-c2ccccc2)[nH]c2ccccc12 | active
CC(C)c1[nH]nc(C(N)=O)c1N=NN(C)C | inactive

---

# assay_info: NCI Yeast Anticancer Drug Screen. Data for the mlh1 rad18 strain (AID 175)
# experimental_parameters: S. cerevisiae mlh1 rad18 strain growth inhibition; at 50.0 µM (retest, dose inferred, filed as 5.0); active compounds read high
Compounds without any hit were thinned out: in the full panel of roughly 79,000, 15% have a hit.
# key: entry, value: growth inhibition

chemical_structure | readout_unit | growth inhibition
N#C/C(=C\c1ccccc1)c1ccccc1F | % | 96
CN=C(N)N/N=C(\C)c1ccc2oc3ccc(/C(C)=N/NC(N)=NC)cc3c2c1 | % | 98
O=c1ccc(N=Nc2ccccc2)ccc1O | % | 99
C=C(CCCO)[C@@H]1CC[C@@](C)(O)[C@H]1C | % | 87
Cc1ccc(CNc2ccc(Br)cc2)cc1 | % | 77
CC(=O)N1C(=O)/C(=C\C(=O)c2ccc([N+](=O)[O-])cc2)c2ccccc21 | % | 98
O=C1C=CC(=O)N1c1ccc2c(c1)OCO2 | % | 97
COCCCN(Cc1cc(OC)c(OC)c(OC)c1)C(=S)Nc1cccc(Cl)c1 | % | 67
O=C(/C=C\c1ccc([N+](=O)[O-])o1)Nc1ccc(Cl)cc1 | % | 86
Cn1c2nc3ccccc3c-2nc2ccccc21 | % | 98
C=C(C)[C@@H]1CCc2c(O)c(O)c(=O)cc(C)c2C1 | % | 96
CCCCCCCCCCCCCCCCNC(=O)/C(=C\c1ccc(Cl)c(Cl)c1)NC(=O)c1ccccc1 | % | 31
c1ccc2c(c1)Cn1c-2nc2ccccc21 | % | 78
O=C(O)c1cccc2cccc(-c3c4ccc(=O)cc-4oc4cc(O)ccc34)c12 | % | 98
CN(NC(=O)/C(=C/c1ccc(O)cc1)NC(=O)c1ccccc1)c1ccnc2cc(Cl)ccc12 | % | 2

---

# assay_info: NCI Yeast Anticancer Drug Screen. Data for the rad50 strain (AID 155);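 also: 0% = growth of vehicle-only cultures of the same strain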
# experimental_parameters: S. cerevisiae rad50 strain growth inhibition; at 5.0 µM (retest, dose inferred, filed as 0.5)
This is part of a sample that, as a whole, favours compounds with a hit. Of some 79,000 tested, about 15% had one in any assay. Activity calls are given as the source filed them. No stated cut-off is given here; in the data, active means growth inhibition above about 70%; inactive means the rest.
Outcomes: 1 = active, 0 = inactive

chemical_structure | cat
O=C(CCc1ccccc1)ON1C(=S)C(c2ccccc2)(c2ccccc2)N=C1Sc1ccccc1 | 1
COc1ccc(/C=C2\SC(=S)N(C=C3C(=O)NC(=S)NC3=O)C2=O)cc1OC | 0
Nc1cc(S(N)(=O)=O)ccc1SSc1ccc(S(N)(=O)=O)cc1N | 0
O=Nn1c2ccccc2c2ccccc21 | 0
COC(=O)c1ccc2c(c1)Cc1ccccc1-2 | 0

---

# key: entry, value: growth inhibition
# assay_info: NCI Yeast Anticancer Drug Screen. Data for the mlh1 strain (AID 171);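 also: 0% = growth of vehicle-treated control cultures of the same strain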
# experimental_parameters: S. cerevisiae mlh1 strain growth inhibition; at 1.2 µM; active compounds read high
Compounds without any hit were thinned out: in the full panel of roughly 79,000, 15% have a hit.

chemical_structure | growth inhibition [%]
COc1ccc(C(C#N)=C2C=CC(=NO)C=C2)cc1 | 8
Cc1ccc(I)cc1N=C=S | 28
CC(=O)CC(=O)/C=C/c1cccs1 | -21
CC(=O)C1=C(C)O/C(=C/c2cccc(Cl)c2)C1=O | -3
O=[N+]([O-])c1cc(S(=O)(=O)Nc2ccccc2)ccc1Cl | -34
CCOC(=O)CNC(=O)c1[nH]cnc1/N=N/N(C)C | 13
C/C=C/[P+](c1ccccc1)(c1ccccc1)c1ccccc1 | 30
CCOc1ccc(C(=O)CCC(=O)O)c(C)c1 | -2
COC(=O)/C=C1/OC(c2ccc(Br)cc2)=C(Br)C1=O | -18
Cc1ccc(Nc2n[nH]c(=S)s2)cc1 | -10
CCCCOC(=O)CSSCC(=O)OCCCC | -26
O=Nc1ccc(Nc2ccccc2)cc1 | -42
N#CC(=C1C=CC(=NO)C=C1)c1ccccc1 | 3
N#C/C(=C\c1ccccc1)c1ccccc1F | -1
O=C(NC(=S)Nc1ccccn1)c1ccccc1 | -38
O=c1ccc(N=Nc2ccccc2)ccc1O | 10

---

# assay_info: NCI Yeast Anticancer Drug Screen. Data for the bub3 strain (AID 167)
# experimental_parameters: S. cerevisiae bub3 mutant strain, at 1.2 µM, active compounds read high
# Protocol: Growth inhibition of yeast strains with defined genetic alterations is measured as a screen for potential anti-cancer activity. Selected strains with alterations in DNA damage repair or cell cycle control were exposed to compounds and growth inhibition was measured relative to vehicle treated controls. The strain used in this assay is bub3
About 79,000 compounds went through this panel and 15% of them were active in at least one assay; those are over-represented in the sample as a whole.
measure: growth inhibition (%)

compound | measure | readout_unit | meas_value
CCCc1[nH]nc(C(N)=O)c1N=NN(C)C | growth inhibition | % | -13
O=Cc1coc2ccccc2c1=O | growth inhibition | % | 5
CNc1ccc(Cc2c[nH]c3ccccc23)cc1 | growth inhibition | % | -8
CCC(=O)N(c1ccccc1)C(C)CN1CCC(O)(c2cccc(C(F)(F)F)c2)CC1 (stereo not given) | growth inhibition | % | 1
Cc1ccc(S(=O)(=O)N/N=C/C2(c3ccccc3)c3ccccc3-c3ccccc32)cc1 | growth inhibition | % | 19
S=c1cn[nH]c2ccc(Br)cc12 | growth inhibition | % | -12
Clc1c(Cl)c(Cl)c2n[nH]nc2c1Cl | growth inhibition | % | -21
CCCCCCCCCCCCCCCCNC(=O)/C(=C\c1ccc(Cl)c(Cl)c1)NC(=O)c1ccccc1 | growth inhibition | % | -3
O=C(/C=C/c1cccc2ccccc12)c1ccc(Cl)cc1 | growth inhibition | % | 6
CC1=CC2C(C(C)C)CC1C1C(=O)OC(=O)C21 (stereo not given) | growth inhibition | % | -6
O=C1CSC(=S)N1Cc1ccc(Cl)cc1Cl | growth inhibition | % | -9
O=C(Nc1ccc2c(c1)Cc1c-2ccc([N+](=O)[O-])c1F)C(F)(F)F | growth inhibition | % | -2
C(=N/NC1=NCCN1)/c1c2ccccc2c(/C=N\NC2=NCCN2)c2ccccc12 | growth inhibition | % | -17
CC[C@@]1(OC(=O)CN(C)C)C(=O)OCc2c1cc1n(c2=O)Cc2cc3c(N)cccc3nc2-1 | growth inhibition | % | -14
CC(C)(C)c1ccc(O)c(C(c2ccc([N+](=O)[O-])cc2)c2cc(C(C)(C)C)ccc2O)c1 | growth inhibition | % | 9
OCCNCCOc1ccc(/C(=C(/Cl)c2ccccc2)c2ccccc2)cc1 | growth inhibition | % | -8
Clc1nc(C(Cl)Cl)nc2sc3c(c12)CCCC3 | growth inhibition | % | 5
Cc1nc2c(ncn2CCO)c(=O)[nH]1 | growth inhibition | % | -10
COC(=O)c1cccc(C)c1C(=O)c1c(C)cc(C)cc1C | growth inhibition | % | 0
O=NN(CCCl)C(=O)NC1CCCCC1 | growth inhibition | % | -4
COC(=O)CSc1nnc(CSc2ccc(Cl)cc2)n1-c1ccccc1 | growth inhibition | % | -1
Cc1ccc2c(ccc(/C=C/c3ccc(O)c4ncccc34)[n+]2C)c1 | growth inhibition | % | 18
CC(=O)C1=C(C)O/C(=C/c2cccc(Cl)c2)C1=O | growth inhibition | % | 0
S=C(S)NCC1CCC(CNC(=S)S)CC1 (stereo not given) | growth inhibition | % | 16
O=C1c2cccc3cc([N+](=O)[O-])cc(c23)C(=O)N1CCN1CCCC1 | growth inhibition | % | 9
O=[N+]([O-])/C(C(Cl)=C(Cl)Cl)=C1/OCCS1 | growth inhibition | % | 6
Cc1cc(O)c2c(c1O)C(=O)C13C(=C2O)C(=O)C2C(O)C1C1C(O)C3C(=O)C3=C(O)c4c(O)cc(C)c(O)c4C(=O)C321 (stereo not given) | growth inhibition | % | -5
COc1ccc(N)c2c1C(=O)c1ccccc1C2=O | growth inhibition | % | -25
CC(=O)C1(O)Cc2c(O)c3c(c(O)c2C(OC2CC(N)C(O)C(C)O2)C1)C(=O)c1ccccc1C3=O (stereo not given) | growth inhibition | % | -7
CCC(c1ccc(O)cc1)C(CC)c1ccc(OCCN)cc1 (stereo not given) | growth inhibition | % | -2
BrCc1ccccc1C(c1ccccc1)c1ccccc1 | growth inhibition | % | 4
CC(=O)Oc1ccc(N2C(=O)C3c4[nH]c5ccccc5c4C4CCC(C(C)(C)C)CC4C3C2=O)cc1 (stereo not given) | growth inhibition | % | -28
CCCCCC#CCOC(=O)C(=[N+]=[N-])P(=O)(c1ccccc1)c1ccccc1 | growth inhibition | % | 1
COc1ccc(N=Nc2ccc3oc(=O)c(C(=O)Nc4ccccc4)cc3c2)cc1 | growth inhibition | % | -11
O=C(NC(=S)Nc1ccccn1)c1ccccc1 | growth inhibition | % | -19
NC(N)=NCCCS(=O)(=O)Nc1ccc(Nc2c3ccccc3nc3cc([N+](=O)[O-])ccc23)cc1 | growth inhibition | % | 0
C/C=C/[P+](c1ccccc1)(c1ccccc1)c1ccccc1 | growth inhibition | % | 15
Cc1ccc(CNc2ccc(Br)cc2)cc1 | growth inhibition | % | -7
Cc1cc(O)c2c(c1)C(=O)C=C(Br)C2=O | growth inhibition | % | 88
CC(C)c1cccc(O)c(=O)c1 | growth inhibition | % | 5
